For each of the compounds below, state its growth.
- Tested on: E. coli TESEC Alr+ wild-type control
- assayProtocol: growth (OD600 after 10 h); higher = more growth (less inhibition)
- conditionDetails: compound 0.1 mM; raw OD600 reference: median of DMSO wells 0.49, cell-free background 0.052
Counter-ions that a name gives are not always drawn.
Answers are plain numbers.

Take a look at these entries with their results.
O=C(CCCN1CCN(c2ccccn2)CC1)c1ccc(F)cc1 [Azaperone] :: 0.395
O=C1c2c(O)cccc2Cc2cccc(O)c21 [Anthralin] :: 0.339

Your task in this section: give growth for each listed record.
1. CCN(CC)CC#CCOC(=O)C(O)(c1ccccc1)C1CCCCC1 (stereo not drawn) [Oxybutynin chloride]
2. Clc1ccccc1CN1CCc2sccc2C1 [Ticlopidine hydrochloride]
3. Cc1cc(C(C)(C)C)cc(C)c1CC1=NCCN1 [Xylometazoline hydrochloride]
4. CCN(CC)C(=O)c1ccc(O)c(OC)c1 [Ethamivan]

OUT:
1. 0.41
2. 0.429
3. 0.45
4. 0.543

Your task in this section: give growth for each listed record.
1. C[C@@](Cc1ccc(O)c(O)c1)(NN)C(=O)O [Carbidopa]
2. Brc1c(NC2=NCCN2)ccc2nccnc12 [Brimondine L-Tartrate]
3. CCOC(=O)C1=C(C)NC(C)=C(C(=O)OCC)C1c1ccccc1/C=C/C(=O)OC(C)(C)C [Lacidipine]

OUT:
1: 0.499; 2: 0.46; 3: 0.521

* * *

- Test system: E. coli TESEC Mtb Alr
- assayProtocol: growth (OD600 after 10 h); higher = more growth (less inhibition)
- conditionDetails: arabinose 10000 nM; compound 0.1 mM; raw OD600 reference: median of DMSO wells 0.264, cell-free background 0.041
Structures can show the parent of a compound that is named as a salt.
metric: growth
Numbers only.

Take a look at these entries with their results.
COc1ccc(C(=O)CC(=O)c2ccc(C(C)(C)C)cc2)cc1 :: 0.197
C[N+]1(C)CCC(=C(c2ccccc2)c2ccccc2)CC1 [Diphemanil methylsulfate] :: 0.255
C[C@@H]1CCC[C@H](C)N1NC(=O)c1ccc(Cl)c(S(N)(=O)=O)c1 [Clopamide] :: 0.251
COC(=O)C1=C(C)NC(C)=C(C(=O)OC2CCCN(Cc3ccccc3)C2)C1c1cccc([N+](=O)[O-])c1 (stereo not drawn) [Benidipine hydrochloride] :: 0.177
CC(C)(C)NCC(O)COc1cccc2c1CC(O)C(O)C2 (stereo not drawn) :: 0.267

Your task in this section: give growth for each listed record.
1. CCCC1C(=O)N2C(N(C)C)=Nc3ccc(C)cc3N2C1=O (stereo not drawn)
2. NCc1ccccc1CC(=O)N[C@@H]1C(=O)N2C(C(=O)O)=C(CSc3nnnn3CC(=O)O)CS[C@H]12 [Ceforanide]
3. O=C(NCCNCC(O)COc1ccc(O)cc1)N1CCOCC1 (stereo not drawn) [Xamoterol hemifumarate]

OUT:
[0.255, 0.167, 0.272]

* * *

- System: E. coli TESEC Mtb Asd
- assayProtocol: growth (OD600 after 10 h); higher = more growth (less inhibition)
- conditionDetails: arabinose induction (level): Low; compound 0.1 mM; raw OD600 reference: median of DMSO wells 0.417, cell-free background 0.041
Counter-ions that a name gives are not always drawn.
For each of the molecules below, state its growth.
Answers are plain numbers.

Take a look at these entries with their results.
O=C(NCCN1CCOCC1)c1ccc(Cl)cc1 [Moclobemide] :: 0.395
CC(=O)Oc1ccccc1C(=O)O :: 0.314
Nc1nc(=O)c2nc(CNc3ccc(C(=O)N[C@@H](CCC(=O)O)C(=O)O)cc3)cnc2[nH]1 :: 0.318
O=P(O)(O)C(O)(Cn1ccnc1)P(=O)(O)O [Zoledronic acid hydrate] :: 0.357
CC[C@H]1OC(=O)[C@H](C)[C@@H](O[C@H]2C[C@@](C)(OC)[C@@H](O)[C@H](C)O2)[C@H](C)[C@@H](O[C@@H]2O[C@H](C)C[C@H](N(C)C)[C@H]2O)[C@](C)(O)C[C@@H](C)[C@@H]2N[C@@H](COCCOC)O[C@H]([C@H]2C)[C@]1(C)O :: 0.054
Cc1ccc(/C(=C\CN2CCCC2)c2ccccn2)cc1 [Triprolidine hydrochloride] :: 0.427

For the next question, use this molecule.
IN: Suppose we examine the molecule CC[C@@]1(O)C(=O)OCc2c1cc1n(c2=O)Cc2cc3c(CN(C)C)c(O)ccc3nc2-1 ; what growth value has been reported?
OUT: 0.317

* * *

For each of the molecules below, state its growth.
- System: E. coli TESEC Mtb Alr
- assayProtocol: growth (OD600 after 10 h); higher = more growth (less inhibition)
- conditionDetails: arabinose 1000 nM; compound 0.1 mM; raw OD600 reference: median of DMSO wells 0.294, cell-free background 0.041
Where a name gives a salt, the structure may show the parent alone.
Numbers only.

CCSc1ccc2c(c1)N(CCCN1CCN(C)CC1)c1ccccc1S2 [Thiethylperazine dimalate] :: 0.0413
Clc1ccc2c(c1)C(N1CCNCC1)=Nc1ccccc1O2 :: 0.171
COc1cc2nc(N(C)CCCNC(=O)C3CCCO3)nc(N)c2cc1OC (stereo not given) [Alfuzosin hydrochloride] :: 0.286
CN1CCN(CCCN2c3ccccc3Sc3ccc(Cl)cc32)CC1 [Prochlorperazine dimaleate] :: 0.041
CC(C)(C)NC[C@@H](O)COc1cccc2c1CCCC2=O [(+) -Levobunolol hydrochloride] :: 0.291
Cc1onc(-c2ccccc2Cl)c1C(=O)N[C@@H]1C(=O)N2[C@@H]1SC(C)(C)[C@@H]2C(=O)O [Cloxacillin sodium salt] :: 0.288
Nc1c(Br)cc(Br)cc1CN[C@H]1CC[C@H](O)CC1 [Ambroxol hydrochloride] :: 0.256
Nc1nc(NC2CC2)c2ncn([C@H]3C=C[C@@H](CO)C3)c2n1 [Abacavir Sulfate] :: 0.295
O=C(O)c1ccccc1C(=O)Nc1ccc(S(=O)(=O)Nc2nccs2)cc1 :: 0.298
CCc1nn(CCCN2CCN(c3cccc(Cl)c3)CC2)c(=O)n1CCOc1ccccc1 [Nefazodone HCl] :: 0.0444

Your task in this section: give growth for each listed record.
1. COc1cc(NC(C)CCCN)c2ncccc2c1 (stereo not given) [Primaquine diphosphate]
2. C[C@]12CC[C@H]3C(=CCc4cc(O)ccc43)[C@@H]1CCC2=O
3. CN(c1nccc(=O)[nH]1)C1CCN(c2nc3ccccc3n2Cc2ccc(F)cc2)CC1
4. CC(C)C(=O)c1c(C(C)C)nn2ccccc12
5. C=C(NC(=O)C(=C)NC(=O)c1csc(C2=N[C@@H]3c4csc(n4)[C@H]4NC(=O)c5csc(n5)[C@H]([C@](C)(O)[C@@H](C)O)NC(=O)[C@H]5CSC(=N5)/C(=C/C)NC(=O)[C@H]([C@@H](C)O)NC(=O)c5csc(n5)[C@]3(CC2)NC(=O)[C@H](C)NC(=O)C(=C)NC(=O)[C@H](C)NC(=O)[C@H]([C@@H](C)CC)N[C@@H]2C=Cc3c([C@H](C)O)cc(nc3[C@H]2O)C(=O)O[C@@H]4C)n1)C(N)=O

OUT:
1. 0.0463
2. 0.17
3. 0.221
4. 0.221
5. 0.327

* * *

- System: E. coli TESEC Mtb Asd
- assayProtocol: growth (OD600 after 10 h); higher = more growth (less inhibition)
- conditionDetails: arabinose induction (level): High; compound 0.1 mM; raw OD600 reference: median of DMSO wells 0.331, cell-free background 0.041
Counter-ions that a name gives are not always drawn.
metric: growth

Take a look at these entries with their results.
NC(Cc1cc(I)c(Oc2cc(I)c(O)c(I)c2)c(I)c1)C(=O)O (configuration not stated) :: 0.354
COC(=O)N/N=C/c1c[n+]([O-])c2ccccc2[n+]1[O-] :: 0.163
NC[C@H]1O[C@H](O[C@H]2[C@H](O[C@@H]3O[C@H](CO)[C@@H](O)[C@H]3O)[C@@H](O)[C@H](N)C[C@@H]2N)[C@H](N)[C@@H](O)[C@@H]1O [Ribostamycin sulfate salt] :: 0.37
CCCCC1=NC2(CCCC2)C(=O)N1Cc1ccc(-c2ccccc2-c2nnn[nH]2)cc1 :: 0.198
CC(=O)Oc1ccccc1C(=O)Nc1ncc([N+](=O)[O-])s1 [Nitazoxanide] :: 0.0632
CCN(CC)CCOC(=O)C1(c2ccc([N+](=O)[O-])cc2)CCCC1 [Nitrocaramiphen hydrochloride] :: 0.205

For the next question, use this compound.
IN: Any idea what growth came out for CC(=O)OCC(=O)[C@@]1(O)CC[C@H]2[C@@H]3CCC4=CC(=O)CC[C@]4(C)[C@H]3[C@@H](O)C[C@@]21C [Cortisol acetate] on E. coli TESEC Mtb Asd?
OUT: 0.366

* * *

- System: E. coli TESEC Mtb Alr
- assayProtocol: growth (OD600 after 10 h); higher = more growth (less inhibition)
- conditionDetails: arabinose 10000 nM; compound 0.1 mM; raw OD600 reference: median of DMSO wells 0.264, cell-free background 0.041
Structures can show the parent of a compound that is named as a salt.
metric: growth
Give bare numbers.

Take a look at these entries with their results.
S=c1[nH]cnc2nc[nH]c12 [Mercaptopurine] :: 0.0528
CC1(C)S[C@@H]2[C@H](NC(=O)[C@H](N)c3ccc(O)cc3)C(=O)N2[C@H]1C(=O)O [Amoxicillin] :: 0.251
Clc1ccc2c(c1)CCc1cccnc1C2=C1CCNCC1 [Desloratadine] :: 0.256

Your task in this section: give growth for each listed record.
1. C[N+](C)(CCOc1ccccc1)Cc1ccccc1.O=C([O-])c1cc2ccccc2cc1O [Bephenium hydroxynaphthoate]
2. CN1[C@@H]2CC[C@H]1C[C@@H](OC(=O)c1c[nH]c3ccccc13)C2 [Tropisetron HCl]

OUT:
1. 0.207
2. 0.273
